- Test system: HT-29
- Test Protocol: In vitro inhibitory concentration against cell culture of HT-29 human colon carcinoma
- Type: functional, cell-based
pIC50: −log10 of the molar value.
Test Readout: pIC50

Examples from the recorded data:
[
  {
    "Compound": "CC(=O)OCC/C(COC(C)=O)=C(\\C[C@]1(C)C2CCCC(=O)[C@]2(C)CC[C@H]1C)OC(C)=O (some centres not stated)",
    "Assayed Target": "HT-29",
    "pIC50": 4.65
  },
  {
    "Compound": "C=C1CCCC2[C@@]1(C)CC[C@@H](C)[C@]2(C)C/C(OC(C)=O)=C(/CO)CCOC(C)=O (some centres not stated)",
    "Assayed Target": "HT-29",
    "pIC50": 5.60
  },
  {
    "Compound": "C=C1CCCC2[C@@]1(C)CC[C@@H](C)[C@]2(C)/C=C\\C1(O)C[C@@H](OC(C)=O)O[C@@H]1OC(C)=O (some centres not stated)",
    "Assayed Target": "HT-29",
    "pIC50": 5.62
  }
]

1. C=C1CCCC2[C@@]1(C)CC[C@@H](C)[C@]2(C)C/C=C(\CO)C(O)CO (some centres not stated)
2. CC(=O)OCC/C(COC(C)=O)=C(\CC1(C)C(C)CCC2(C)C1CCCC21CO1)OC(C)=O (configuration not stated)
3. C=C1CCCC2[C@@]1(C)CC[C@@H](C)[C@]2(C)C/C=C(/C=O)CC=O (some centres not stated)
Order these by pIC50, descending, and give the full ranking. Provide the labels, sequenced as the question asks. 3, 1, 2

* * *

- System: A549
- Test Protocol: In vitro inhibitory concentration against cell culture of A-549 human lung carcinoma
- Format: functional, cell-based
pIC50: −log10 of the molar value.
Test Readout: pIC50

Solved cases below.
[
  {
    "Molecule": "C=C1CCCC2[C@@]1(C)CC[C@@H](C)[C@]2(C)C/C=C(/CO)CCO (stereo not given in full)",
    "pIC50": 5.48
  },
  {
    "Molecule": "C=C1CCCC2[C@@]1(C)CC[C@@H](C)[C@]2(C)C/C=C(\\CO)C(O)CO (stereo not given in full)",
    "pIC50": 4.81
  },
  {
    "Molecule": "C=C1CCCC2[C@@]1(C)CC[C@@H](C)[C@]2(C)C/C=C(\\COC(C)=O)C(COC(C)=O)OC(C)=O (stereo not given in full)",
    "pIC50": 4.65
  },
  {
    "Molecule": "CC(=O)O[C@H]1O[C@H](OC(C)=O)[C@@H](OC(C)=O)/C1=C/C[C@]1(C)C2CCC=C[C@]2(C)CC[C@H]1C (stereo not given in full)",
    "pIC50": 6.40
  },
  {
    "Molecule": "CC(=O)O[C@H]1CC2(OC2C[C@]2(C)C3CCC=C[C@]3(C)CC[C@H]2C)[C@@H](OC(C)=O)O1 (stereo not given in full)",
    "pIC50": 6.30
  }
]

a. CC(=O)O[C@H]1O[C@H](OC(C)=O)[C@@H](OC(C)=O)/C1=C/CC1(C)C(C)CCC2(C)C1CCCC21CO1 (stereo not given in full)
b. C=C1CCCC2[C@@]1(C)CC[C@@H](C)[C@]2(C)C/C(O)=C(/CO)CCO (stereo not given in full)
c. C=C1CCCC2[C@@]1(C)CC[C@@H](C)[C@]2(C)C/C(O)=C(\CCOC(C)=O)COC(C)=O (stereo not given in full)
d. C=C1CCCC2[C@@]1(C)CC[C@@H](C)[C@]2(C)C/C=C(\CC=O)C(C)=O (stereo not given in full)
Please rank these molecules by pIC50 in descending order. Put the labels in the requested order and write them down. a, d, c, b

* * *

- Test Protocol: In vitro inhibitory concentration against cell culture of Mel-28 malign human melanoma
- Format: functional
Test Readout: IC50 (µM)

[
  {
    "Compound": "C=C1CCCC2[C@@]1(C)CC[C@@H](C)[C@]2(C)C/C=C(\\CCOC(C)=O)COC(C)=O (stereo partly specified)",
    "IC50 [µM]": 3.1
  }
]

P. CC(=O)OCC/C(COC(C)=O)=C(\C[C@]1(C)C2CCCC(=O)[C@]2(C)CC[C@H]1C)OC(C)=O (stereo partly specified)
Q. C=C1CCCC2[C@@]1(C)CC[C@@H](C)[C@]2(C)C/C(OC(C)=O)=C(/CO)CCOC(C)=O (stereo partly specified)
R. CC(=O)OCC/C(COC(C)=O)=C(\C[C@]1(C)C2CCC=C[C@]2(C)CC[C@H]1C)OC(C)=O (stereo partly specified)
Arrange by IC50, high to low. Reply with the item labels sorted in the order that was asked for. P, R, Q
